Field: GI50. Provide a value for each of the compounds that follow.
- Tested on: UO-31 renal
- test.summary: NCI tumour cell line growth inhibition, 48 h

Before answering, review these 9 worked examples.
>  <compound>
CCOC1Oc2ccc(C)cc2C(=O)/C1=C\Nc1ccc(C(N)=O)cc1 (stereo not given)

>  <tgt>
UO-31 renal

>  <value.observed>
21200 nM

$$$$
>  <compound>
Cc1ccc(C(=O)NC(C)C)cc1-c1ccc(C(=O)NCC2CC2)cc1

>  <tgt>
UO-31 renal

>  <value.observed>
> 25000 nM

$$$$
>  <compound>
O=C1C(Cl)=C(NCCN2CCOCC2)C(=O)c2ncccc21

>  <tgt>
UO-31 renal

>  <value.observed>
1280 nM

$$$$
>  <compound>
O=C(O)/C=C(\c1nc2ccc([N+](=O)[O-])cc2[nH]1)c1cc(Cl)ccc1O

>  <tgt>
UO-31 renal

>  <value.observed>
1540 nM

$$$$
>  <compound>
NC(=O)NS(=O)(=O)c1ccc(N2N=C(C(F)(F)F)CC2c2cc(C(F)(F)F)cc(C(F)(F)F)c2)cc1 (stereo not given)

>  <tgt>
UO-31 renal

>  <value.observed>
86.2 nM

$$$$
>  <compound>
O=C(O)CCNC1CCCCC1

>  <tgt>
UO-31 renal

>  <value.observed>
> 100000 nM

$$$$
>  <compound>
COc1cc2ncn(-c3cc(OCc4cccs4)c(C(N)=O)s3)c2cc1OC

>  <tgt>
UO-31 renal

>  <value.observed>
2770 nM

$$$$
>  <compound>
CC/C=C\C[C@H](F)C/C=C1/C(=O)C=C[C@@H]1C/C=C\CCCC(=O)O

>  <tgt>
UO-31 renal

>  <value.observed>
5780 nM

$$$$
>  <compound>
COc1ccc(-c2onc(N)c2-c2cc(OC)c3c(c2)OCO3)cc1

>  <tgt>
UO-31 renal

>  <value.observed>
10500 nM

$$$$

Switching to the query record.
**Q:** What GI50 value was documented for this compound, "Nc1nc(N(Cc2ccccc2)c2ccccc2)c2cn[nH]c2n1" ?
**A:** 1800 nM
